The reader will find reported IC50 values listed item by item below.
# Tested on: L. donovani intramacrophage amastigote forms (LV9)
# METHOD: In vitro antileishmanial evaluation on intramacrophage amastigotes
# Assay type: cell-based
# ASSAY CONTEXT: Leishmania donovani, RAW264.7, 48 h, read-out: L. donovani IC50
I'd appreciate it if you included the unit after the number.

Consider the reported IC50 for these molecules:
[
  {
    "MOLECULE": "CCCCCCCCCCCCCCCCOP(=O)([O-])OCC[N+](C)(C)C [miltefosine, reference compound]",
    "IC50": "1.46 µM"
  },
  {
    "MOLECULE": "O=C1C=C(O)C(=O)c2ccccc21 [lawsone (1), 2-hydroxy-1,4-naphthoquinone, reference compound]",
    "IC50": "6.27 µM"
  },
  {
    "MOLECULE": "O=C1C(O)=C([C@H]2CC[C@H](c3ccc(Cl)cc3)CC2)C(=O)c2ccccc21 [atovaquone (7), atovaquone, reference compound]",
    "IC50": "11.1 µM"
  }
]

The record that follows has no IC50 shown yet.
Documented IC50 of CCCCNC=C1C(=O)C(=O)c2ccccc2C1=O [Compound 29] : 6.33 µM
